IC50 by entry:
Tested on: nontumoral lung (MRC-5) cell line
Experiment: MTT cytotoxicity assay, MRC-5
Format: cell-based, human
Details: Homo sapiens, MRC5, 48 h, ± SD, 1.56-200 µM, nontumoral cells

# SMILES_STRUCTURE, REPORTED_PROPERTY, MEASUREMENT
records = [
    ("O=C(C/C(=N/NC(=S)SCc1ccccc1)C(F)(F)F)c1cccs1", "IC50", "> 100 µM"),
]

Please turn your attention to the following entry.
Annotate the molecule O=C(C/C(=N/NC(=S)Nc1ccccc1)C(F)(F)F)c1cccs1 with its measured IC50.
> 100 µM

====

System: nontumoral lung (MRC-5) cell line
Test: MTT cytotoxicity assay, MRC-5
Assay type: cell-based, human
Conditions: 48 h, ± SD, 1.56-200 µM, nontumoral cells
REPORTED_PROPERTY: pIC50
Remember, pIC50 is on a log scale: it is -log10 of the molar concentration.

Annotate the molecule N.N.[Cl][Pt][Cl] [Cisplatin, cisplatin, reference compound] with its measured pIC50.
4.54
